target: panel of more than 300 wild-type and mutant kinases (313 kinase panel) (Homo sapiens); test: Kinase profiling in a biochemical assay panel (mobility shift assays and ELISA), %-inhibition at 1 μM; selectivity entropy; conditions: kinase NDR1; 1 μM
RESULT TYPE: %-inhibition of NDR1 (%)
Respond numerically; units are % and should not be typed.

| COMPOUND | %-inhibition of NDR1 (%) |
| --- | --- |
| CO[C@H]1C[C@@H]2CC[C@@H](C)[C@@](O)(O2)C(=O)C(=O)N2CCCC[C@H]2C(=O)O[C@H]([C@H](C)C[C@@H]2CC[C@@H](OCCO)[C@H](OC)C2)CC(=O)[C@H](C)/C=C(\C)[C@@H](O)[C@@H](OC)C(=O)[C@H](C)C[C@H](C)/C=C/C=C/C=C/1C [everolimus] | -7 |

Attention now shifts to the item below.
Record request: %-inhibition of NDR1 value, item Cc1ccc(Nc2nccc(N(C)c3ccc4c(C)n(C)nc4c3)n2)cc1S(N)(=O)=O [pazopanib]
2.49

====

molecular target: panel of more than 300 wild-type and mutant kinases (313 kinase panel) (Homo sapiens, UniProt P43405); assay: Kinase profiling in a biochemical assay panel (mobility shift assays and ELISA), %-inhibition at 1 μM; selectivity entropy; settings: kinase SYK; 1 μM
Each record here notes measured %-inhibition of SYK.

Record excerpt, results attached:
| MOLECULE | TEST VALUE |
| --- | --- |
| Cc1nc(Nc2ncc(C(=O)Nc3c(C)cccc3Cl)s2)cc(N2CCN(CCO)CC2)n1 | 69% |
| CS(=O)(=O)CCNCc1ccc(-c2ccc3ncnc(Nc4ccc(OCc5cccc(F)c5)c(Cl)c4)c3c2)o1 | 0% |
| Cc1cn(-c2cc(NC(=O)c3ccc(C)c(Nc4nccc(-c5cccnc5)n4)c3)cc(C(F)(F)F)c2)cn1 | 54% |
| CO[C@H]1C[C@@H]2CC[C@@H](C)[C@@](O)(O2)C(=O)C(=O)N2CCCC[C@H]2C(=O)O[C@H]([C@H](C)C[C@@H]2CC[C@@H](OCCO)[C@H](OC)C2)CC(=O)[C@H](C)/C=C(\C)[C@@H](O)[C@@H](OC)C(=O)[C@H](C)C[C@H](C)/C=C/C=C/C=C/1C | -2.55% |
| COc1cc(Nc2c(C#N)cnc3cc(OCCCN4CCN(C)CC4)c(OC)cc23)c(Cl)cc1Cl | 100% |

Item Cc1ccc(Nc2nccc(N(C)c3ccc4c(C)n(C)nc4c3)n2)cc1S(N)(=O)=O has what recorded %-inhibition of SYK?
40%

Look up %-inhibition of SYK: COc1cc2nccc(Oc3ccc(NC(=O)C4(C(=O)Nc5ccc(F)cc5)CC4)cc3)c2cc1OC [cabozantinib]
-3%

====

molecular target: panel of more than 300 wild-type and mutant kinases (313 kinase panel) (Homo sapiens); experiment: Kinase profiling in a biochemical assay panel (mobility shift assays and ELISA), %-inhibition at 1 μM; selectivity entropy; conditions: kinase CDK3/CycE1; 1 μM compound
RESULT TYPE: %-inhibition, CDK3/CycE1

| MOLECULE | %-inhibition, CDK3/CycE1 |
| --- | --- |
| CNC(=O)c1cc(Oc2ccc(NC(=O)Nc3ccc(Cl)c(C(F)(F)F)c3)c(F)c2)ccn1 | -1.17% |
| COc1cc2nccc(Oc3ccc(NC(=O)C4(C(=O)Nc5ccc(F)cc5)CC4)cc3)c2cc1OC [cabozantinib] | -2.84% |
| Cc1cn(-c2cc(NC(=O)c3ccc(C)c(Nc4nccc(-c5cccnc5)n4)c3)cc(C(F)(F)F)c2)cn1 | -1.6% |
| Cc1nc(Nc2ncc(C(=O)Nc3c(C)cccc3Cl)s2)cc(N2CCN(CCO)CC2)n1 | 2.27% |
| Cc1ccc(Nc2nccc(N(C)c3ccc4c(C)n(C)nc4c3)n2)cc1S(N)(=O)=O | 0.931% |

Look up %-inhibition, CDK3/CycE1: CO[C@H]1C[C@@H]2CC[C@@H](C)[C@@](O)(O2)C(=O)C(=O)N2CCCC[C@H]2C(=O)O[C@H]([C@H](C)C[C@@H]2CC[C@@H](OC(=O)C(C)(CO)CO)[C@H](OC)C2)CC(=O)[C@H](C)/C=C(\C)[C@@H](O)[C@@H](OC)C(=O)[C@H](C)C[C@H](C)/C=C/C=C/C=C/1C
-6%

Any idea what its %-inhibition, CDK3/CycE1 is? The molecule is Cc1ccc(C(=O)Nc2ccc(CN3CCN(C)CC3)c(C(F)(F)F)c2)cc1C#Cc1cnc2cccnn12
20%

Item under review: CC(=O)Nc1cccc(-n2c(=O)n(C3CC3)c(=O)c3c(Nc4ccc(I)cc4F)n(C)c(=O)c(C)c32)c1 . Reported %-inhibition, CDK3/CycE1?
0.16%

What %-inhibition, CDK3/CycE1 value was documented for this molecule, CCCS(=O)(=O)Nc1ccc(F)c(C(=O)c2c[nH]c3ncc(-c4ccc(Cl)cc4)cc23)c1F ?
-4.34%

Requested field: %-inhibition, CDK3/CycE1. Item: COc1cc2c(Nc3ccc(Br)cc3F)ncnc2cc1OCC1CCN(C)CC1
-13%

Which %-inhibition, CDK3/CycE1 reading was recorded for the molecule O=S(=O)(c1cccc2cnccc12)N1CCCNCC1 ?
24%

Need %-inhibition, CDK3/CycE1 of CO[C@H]1C[C@@H]2CC[C@@H](C)[C@@](O)(O2)C(=O)C(=O)N2CCCC[C@H]2C(=O)O[C@H]([C@H](C)C[C@@H]2CC[C@@H](OCCO)[C@H](OC)C2)CC(=O)[C@H](C)/C=C(\C)[C@@H](O)[C@@H](OC)C(=O)[C@H](C)C[C@H](C)/C=C/C=C/C=C/1C , thanks.
-4.51%

Entry CS(=O)(=O)CCNCc1ccc(-c2ccc3ncnc(Nc4ccc(OCc5cccc(F)c5)c(Cl)c4)c3c2)o1 : reported %-inhibition, CDK3/CycE1 = ?
2.84%

Consider the molecule C[C@@H](Oc1cc(-c2cnn(C3CCNCC3)c2)cnc1N)c1c(Cl)ccc(F)c1Cl and give its measured %-inhibition, CDK3/CycE1.
-5.68%

Can you look up the measured %-inhibition, CDK3/CycE1 of N#CC[C@H](C1CCCC1)n1cc(-c2ncnc3[nH]ccc23)cn1 for me?
-9.52%
